Test system: Enterovirus C
Experiment: Antiviral activity against Poliovirus infected in african green monkey Vero cells by SRB assay
Assay type: functional, organism-based
pEC50: −log10 of the molar value.
The following compounds are listed with their measured pEC50 values.

- record_smiles: "COc1ccc(/C=N/NC(=O)c2cc3c([nH]c4ccccc43)c(-c3ccccc3)n2)cc1"
  pEC50: 6.06
- record_smiles: "CN(C)c1ccc(/C=N/NC(=O)c2cc3c([nH]c4ccccc43)c(-c3ccc([N+](=O)[O-])cc3)n2)cc1"
  pEC50: "< 4.00"
- record_smiles: "COc1ccc(/C=N/NC(=O)c2cc3c([nH]c4ccccc43)c(-c3ccc(OC)cc3)n2)cc1"
  pEC50: "< 4.00"
- record_smiles: "O=C(N/N=C/c1ccccc1)c1cc2c([nH]c3ccccc32)c(-c2ccccc2)n1"
  pEC50: 5.71
- record_smiles: "COc1ccc(/C=N/NC(=O)c2cc3c([nH]c4ccccc43)c(-c3ccc([N+](=O)[O-])cc3)n2)cc1"
  pEC50: "< 4.00"
- record_smiles: "COc1ccc(-c2nc(C(=O)N/N=C/c3ccc(N(C)C)cc3)cc3c2[nH]c2ccccc23)cc1"
  pEC50: "< 4.00"
- record_smiles: "O=C(N/N=C/c1ccc([N+](=O)[O-])cc1)c1cc2c([nH]c3ccccc32)c(-c2ccccc2)n1"
  pEC50: "< 4.00"

The measured values listed here are drawn from ChEMBL document CHEMBL1155348.
